# Measurement protocol: Acute toxicity (DL50) in the mouse
# Format: in vivo
# Measurement context: in vivo, iv, iv (Table 1), read-out: DL50 value
LD50 values by entry
Experimental readout: LD50 (mg/kg)

INSERT INTO assay_data (compound, unit_text, endpoint_value) VALUES
  ('O=C(N[C@@H](Cc1c[nH]c2ccccc12)C(=O)O)OCc1ccc(I)cc1 [Ex. 7 (CR490), N-p-iodo-carbobenzoxy-L-tryptophane]', 'mg/kg', 166),
  ('O=C(NC(Cc1c[nH]c2ccccc12)C(=O)O)OCc1ccc(Cl)cc1 (racemic) [Ex. 4 (CR463), N-p-chloro-carbobenzoxy-DL-tryptophane]', 'mg/kg', 217),
  ('CCc1ccc(COC(=O)N[C@@H](Cc2c[nH]c3ccccc23)C(=O)O)cc1 [Ex.10 (CR500), N-p-ethyl-carbobenzoxy-L-tryptophane]', 'mg/kg', 158),
  ('O=C(N[C@@H](Cc1c[nH]c2ccccc12)C(=O)O)OCc1cccc(Cl)c1Cl [Ex.15 (CR499)]', 'mg/kg', 175),
  ('O=C(N[C@@H](Cc1c[nH]c2ccccc12)C(=O)O)OCc1cccc2ccccc12 [Ex.31 (CR514)]', 'mg/kg', 160),
  ('Cc1ccc(COC(=O)N[C@@H](Cc2c[nH]c3ccccc23)C(=O)O)cc1Cl [Ex.17 (CR497)]', 'mg/kg', 190),
  ('O=C(N[C@@H](Cc1c[nH]c2ccccc12)C(=O)O)OCc1ccc(Br)cc1 [Ex. 6 (CR451), N-p-bromo-carbobenzoxy-L-tryptophane]', 'mg/kg', 125);

* * *

# Test system: gastric secretion
# Measurement protocol: Comparison of antisecretive activity, rats with tied pylorus, oral aqueous suspension
# Type: in vivo
# Measurement context: oral, 15 hrs; 900 min
Structures can show the parent of a compound that is named as a salt.
Note to self: values exactly at 200 mg/kg are class 1. So Antisecretive activity (dose which reduces the gastric secretion by 50%) at or above 200 mg/kg is class 1, below is class 0.

INSERT INTO assay_data (compound, group) VALUES
  ('O=C(N[C@@H](Cc1c[nH]c2ccccc12)C(=O)O)OCc1ccc(Br)cc1 [CR 451 - Calcium salt]', 'class 1'),
  ('Cc1ccc(C(=O)N[C@@H](Cc2c[nH]c3ccccc23)C(=O)O)cc1 [CR 510 - Calcium salt]', 'class 1'),
  ('O=C(N[C@@H](Cc1c[nH]c2ccccc12)C(=O)O)c1ccc(Cl)cc1 [CR 501 magnesium salt]', 'class 0'),
  ('O=C(N[C@@H](Cc1c[nH]c2ccccc12)C(=O)O)c1ccc(Cl)cc1 [CR 501 aluminium salt]', 'class 0'),
  ('O=C(N[C@@H](Cc1c[nH]c2ccccc12)C(=O)O)c1ccc(Cl)cc1 [Ex.18 (CR501), N-p-chloro-benzoyl-L-tryptophane]', 'class 1');

* * *

# Measurement protocol: Acute toxicity (DL50) in the mouse
# Type: in vivo
# Measurement context: in vivo, oral (Table 2), read-out: DL50 oral
LD50 values by entry
Experimental readout: LD50

INSERT INTO measurements (smiles_string, endpoint_value) VALUES
  ('Cc1ccc(C(=O)N[C@@H](Cc2c[nH]c3ccccc23)C(=O)O)cc1', '2000 mg/kg'),
  ('O=C(N[C@@H](Cc1c[nH]c2ccccc12)C(=O)O)c1ccc(Cl)cc1', '1100 mg/kg');
